molecular target: Leukotriene B4 receptor (Cavia porcellus); assay: Negative logarithm of affinity for leukotriene B4 (LTB4) receptor on guinea pig lung membranes
Recorded Ki values for a group of compounds are listed next.
Write it as a number; the unit µM goes unstated.

CCc1cc(-c2cccc(C(F)(F)F)c2)c(O)cc1OCCCCCC(C)(C)c1nn[nH]n1    0.066

// switching to the query compound
Ask | Item CCc1cc(-c2ccc(N(C)C)cc2)c(O)cc1OCCCCCC(C)(C)c1nn[nH]n1 has what recorded Ki?
Reply | 0.063
